Source listed as patent US20260125454A1.

# subject_of_test: T1, Biotin-huCGRPaSA (human, not fully specified; biotin (position not given))
# T1 construct: exact construct ('aSA') not explained; also called Biotin CGRPaSA; full-length (1-37) CGRP
# T1 peptide: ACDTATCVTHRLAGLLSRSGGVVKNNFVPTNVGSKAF
# experimental_details: ELISA, supernatant; relative to chimeric C245
Kindly supply the reported Relative binding activity, % values for the records listed here.
Answers are plain numbers, in %.

For orientation, consider the following solved cases.
binder	reported_endpoint	value_units	measured_number
hu3 (antibody, V domains shown, 1B2 HC-1/1A2 LC2-3) VH: QVQLVQSGAEVKKPGASVKVSCKASGYTFTDYNMHWVRQAPGQGLEWMGYIFPYNGVAVYNRKFRSRVTLTIDTSSSTAYMELRSLRSDDTAVYYCAREGLGGYWGQGTLVTVSS VL: EIVLTQSPATLSLSPGERATLSCKASQNIDYDGYAYLNWYQQKPGQAPRVLIYSVFNLESGIPARFSGSGSGTDFTLTISSLEPEDFAVYYCQQSNEFPYTFGQGTKLEIK	Relative binding activity, %	%	41
hu160 (antibody, V domains shown, 3E5 HC-2/1A2 LC2-4) VH: QVQLVQSGAEVKKPGASVKVSCKASGYTFTDYNMHWVRQAPGQRLEWMGYISPYNGGTAYNQKFKFRVTLTVDTSSSTAYMELSSLRSEDTAVYYCAREGLGGYWGQGTLVTVSS VL: DIQLTQSPSFLSASVGDRVTITCKASQNIDYDGYAYLNWYQQKPGKAPKVLIYSVFNLESGVPSRFSGSGSGTEFTLTISSLQPEDFATYYCQQSNEFPYTFGQGTKLEIK	Relative binding activity, %	%	50
hu191 (antibody, V domains shown, 3E5 HC-4/2B8 LC2-1) VH: QVQLVQSGAEVKKPGASVKVSCKTSGYTFTDYNMHWVRQAPGQRLEWMGYISPYNAGTAYNQKFKFRVTLTVDTSSSTAYMELSSLRSEDTAVYYCAREGLGGYWGQGTLVTVSS VL: DIVLTQSPDSLAVSLGERATINCQASQNIDGNTYMNWYQQKPGQPPKVLIYSIFNLESGVPDRFSGSGSGTDFTLTISSLQAEDVAVYYCQQSNDYPYTFGQGTKLEIK	Relative binding activity, %	%	68
hu40 (antibody, V domains shown, 1F5 HC-2/1A2 LC2-1) VH: QVQLVQSGAEVKKPGASVKVSCKASGYTFTDFNMHWVRQAPGQRLEWMGYIYPYNGDVVYNQNFTNRVTLTVDTSSSTAYMELSSLRSEDTAVYYCAREGLGGYWGQGTLVTVSS VL: DIVLTQSPASLAVSPGQRATITCKASQNIDYDGYAYLNWYQQKPGQPPKVLIYSVFNLESGVPARFSGSGSGTDFTLTINPVEANDTANYYCQQSNEFPYTFGQGTKLEIK	Relative binding activity, %	%	49

Now consider the entry below.
// field: Relative binding activity, %; key: hu164 (antibody, V domains shown, 3E5 HC-2/1F5 LC1-4) VH: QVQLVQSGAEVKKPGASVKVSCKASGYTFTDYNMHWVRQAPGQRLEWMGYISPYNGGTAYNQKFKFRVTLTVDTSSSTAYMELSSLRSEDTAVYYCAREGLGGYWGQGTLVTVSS VL: DIVLTQSPDSLAVSLGERATINCKASQNIDFDGYAYMNWYQHKPGQPPKVLIYSVFNLESGVPDRFSGSGSGTDFTLTISSLQAEDVAVYYCQQSHEVPYTFGQGTKLEIK ; value = 56
